Tested on: mHTT
assayRemarks: Mutant and total HTT multiplex HTRF assay in Q48 HTT human embryonic stem cell line: mHTT
Assay type: cell-based
experimentalConditions: Q48 HTT hESC, 48 hours
Simple rule here: mHTT pIC50 less than 7 is yes, otherwise no.

These solved cases illustrate the format of a correct answer.
| smilesCode | answerLabel |
| --- | --- |
| COc1cc(-c2cn[nH]c2)c(F)c(F)c1-c1nnc(N(C)C2CC(C)(C)NC(C)(C)C2)s1 | yes |
| CCc1cnc2cc(O)c(-c3ccc(N(C)C4CC(C)(C)NC(C)(C)C4)nn3)cc2c1 | yes |
| Cc1ncc2cc(-c3ccc(N(C)C4CC(C)(C)NC(C)(C)C4)nn3)c(O)cc2n1 | yes |

*Q* Determine whether this molecule shows mHTT pIC50 lower than 7 (ties excluded): CN(c1ccc(-c2ccc(-c3cn[nH]c3)cc2O)nn1)C1CC(C)(C)NC(C)(C)C1
*A* no

---

Test system: tHTT
assayRemarks: Mutant and total HTT multiplex HTRF assay in Q48 HTT human embryonic stem cell line: tHTT
Format: cell-based
experimentalConditions: Q48 HTT hESC, 48 hours
// reported tHTT pIC50 for each item listed
# answer = number (no unit)

| molecule | tHTT pIC50 |
| --- | --- |
| Cc1cnc2cc(-c3ccc(N(C)C4CC(C)(C)NC(C)(C)C4)nn3)c(O)cc2n1 | 7.0015 |
| CN(c1nnc(-c2cc3cc(C#N)ccc3s2)s1)C1CC(C)(C)NC(C)(C)C1 | 6.1615 |
| CN(c1ccc(-c2cc3c(O)nccc3cc2O)nn1)C1CC(C)(C)NC(C)(C)C1 | 7.128 |
| COc1cc(-c2cnn(C)c2)ccc1-c1nnc(N2CC3(CCNCC3)C2)s1 | 6.4335 |
| Cc1cc2cc(O)c(-c3ccc(N(C)C4CC(C)(C)NC(C)(C)C4)nn3)cc2c(C)n1 | 7.3965 |
| CN1C[C@@H]2CN(c3ccc(-c4ccc(-c5cn[nH]c5)cc4O)nn3)C[C@@H]2C1 | 7.0625 |
| CN(c1ccc(-c2cc3cnn(C)c3cc2O)nn1)C1CC(C)(C)NC(C)(C)C1 | 7.1045 |

In the following, a different molecule is considered.
*Q* What value of tHTT pIC50 on tHTT does CC1CC(Oc2ccc(-c3ccc(-c4cn[nH]c4)cc3O)nn2)CC(C)N1 (centres unmarked) have?
*A* 7.089

---

Test system: mHTT
assayRemarks: Mutant and total HTT multiplex HTRF assay in Q48 HTT human embryonic stem cell line: mHTT
Format: cell-based
experimentalConditions: Q48 HTT hESC, 48 hours
# if value of mHTT pIC50 reaches 7, tag True; if it stays below, tag False

These solved cases illustrate the format of a correct answer.
| smilesCode | targetOfAssay | answerLabel |
| --- | --- | --- |
| Oc1cc(-c2cn[nH]c2)ccc1-c1ccc(N2C[C@H]3CNC[C@H]3C2)nn1 | mHTT | False |
| CN(c1nnc(-c2ccc(-c3cn[nH]c3)cc2O)s1)C1CC(C)(C)NC(C)(C)C1 | mHTT | True |
| CN(c1ccc(-c2cc3ccncc3cc2O)nn1)C1CC(C)(C)NC(C)(C)C1 | mHTT | False |
| CC1(C)CC(Nc2ccc(-c3ccc(-n4cccn4)cc3O)nn2)CC(C)(C)N1 | mHTT | True |
| CCOc1cc(C)nc2cc(O)c(-c3ccc(N(C)C4CC(C)(C)NC(C)(C)C4)nn3)cc12 | mHTT | False |

*Q* Does the molecule CN(c1ccc(-c2ccc(-n3ccc(N)n3)cc2O)nn1)C1CC(C)(C)NC(C)(C)C1 have recorded mHTT pIC50 that is 7 or more?
*A* True

---

// reported mHTT pIC50 for each item listed
Tested on: mHTT
assayRemarks: Mutant and total HTT multiplex HTRF assay in Q48 HTT human embryonic stem cell line: mHTT
Format: cell-based
experimentalConditions: Q48 HTT hESC, 48 hours
# answer = number (no unit)

Known results for molecules:
| molecule | measured |
| --- | --- |
| COc1cc(-c2sc(C)nc2C)ccc1-c1nnc(N(C)C2CC(C)(C)NC(C)(C)C2)s1 | 6.6555 |
| CN(c1ccc(-c2cc3ccccc3cc2O)nn1)C1CC(C)(C)NC(C)(C)C1 | 6.923 |
| Cc1nc(-c2ccc(-c3ccc(N(C)C4CC(C)(C)NC(C)(C)C4)nn3)c(O)c2)c[nH]1 | 6.678 |
| C[C@@H]1CC(Oc2ccc(-c3ccc(-n4cccn4)cc3O)nn2)C[C@@H](C)N1 (some centres unmarked) | 5.999 |

*Q* What value of mHTT pIC50 on mHTT does CN(c1ccc(-c2ccc(-c3ccn(C4CC4)c(=O)c3)cc2O)nn1)C1CC(C)(C)NC(C)(C)C1 have?
*A* 7.1215

*Q* Next record, please: Cc1cc(C2CC2)c2cc(-c3ccc(N(C)C4CC(C)(C)NC(C)(C)C4)nn3)c(O)cc2n1
*A* 6.746

*Q* Next record, please: CN(c1nnc(-c2ccc(-c3cn[nH]c3)cc2F)s1)C1CC(C)(C)NC(C)(C)C1
*A* 6.0645

---

Tested on: tHTT
assayRemarks: Mutant and total HTT multiplex HTRF assay in Q48 HTT human embryonic stem cell line: tHTT
Format: cell-based
experimentalConditions: Q48 HTT hESC, 48 hours
// reported tHTT pIC50 for each item listed
# answer = number (no unit)

Known results for compounds:
| compound | tHTT pIC50 |
| --- | --- |
| CC1(C)CC(Oc2ccc(-c3ccc(-n4cccn4)cc3O)nn2)CCN1 (centres unmarked) | 6.13 |
| COc1cc(-c2cn[nH]c2)cc(F)c1-c1nnc(N(C)C2CC(C)(C)NC(C)(C)C2)s1 | 6.071 |

*Q* What value of tHTT pIC50 on tHTT does CN(c1ccc(-c2cc3c(cc2O)-c2nc(N)sc2C3)nn1)C1CC(C)(C)NC(C)(C)C1 have?
*A* 7.001

*Q* Next record, please: COc1cc(-c2cnn(C)c2)cc(O)c1-c1ccc(N(C)C2CC(C)(C)NC(C)(C)C2)nn1
*A* 7.106

*Q* Next record, please: Cc1nc(-c2ccc(-c3ccc(N(C)C4CC(C)(C)NC(C)(C)C4)nn3)c(O)c2)c[nH]1
*A* 6.5065

---

Tested on: mHTT
assayRemarks: Mutant and total HTT multiplex HTRF assay in Q48 HTT human embryonic stem cell line: mHTT
Type: cell-based
experimentalConditions: Q48 HTT hESC, 48 hours
Description: The multiplex assay is performed in human embryonic stem cells (hESCs) which have been derived by Genea Biocells from human blastocysts of HD donors. […] These detection reagents are incubated with the cell lysate at room temperature for 4-6 hours before having their fluorescence quantified at 615 nm (donor) and 535 nm and 665 nm (acceptor 1 and 2 respectively). The donor/acceptor ratio between these signals indicates the relative quantities of mHTT and tHTT proteins. […]
// reported mHTT pIC50 for each item listed

Known results for compounds:
| compound | parameter | measured |
| --- | --- | --- |
| CN(c1nnc(-c2ccc(-c3ccc(=O)n(C)c3)cc2O)s1)C1CC(C)(C)NC(C)(C)C1 | mHTT pIC50 | 7.585 |
| CC1(C)CC(Oc2ccc(-c3ccc(-n4cccn4)cc3O)nn2)CCN1 (centres unmarked) | mHTT pIC50 | 6.21 |
| CCn1ccc2cc(O)c(-c3ccc(OC4CC(C)(C)NC(C)(C)C4)nn3)cc2c1=O | mHTT pIC50 | 7.186 |
| COc1ccnc2cc(-c3ccc(N(C)C4CC(C)(C)NC(C)(C)C4)nn3)c(O)cc12 | mHTT pIC50 | 6.8055 |
| Cc1nc2cc(-c3ccc(N(C)C4CC(C)(C)NC(C)(C)C4)nn3)c(O)cc2[nH]1 | mHTT pIC50 | 6.728 |

*Q* Name the reported mHTT pIC50 value associated with the compound CN(c1ccc(-c2cc3cn(C)nc3cc2O)nn1)C1CC(C)(C)NC(C)(C)C1
*A* 6.927

*Q* Next record, please: CN(c1ccc(-c2cc3c(cc2O)C(=O)CC3)nn1)C1CC(C)(C)NC(C)(C)C1
*A* 6.5815

*Q* Next record, please: CN(c1nnc(-c2ccc(-c3cnn(C)c3)cc2O)s1)C1CC(C)(C)NC(C)(C)C1
*A* 7.3285

---

System: mHTT
assayRemarks: Mutant and total HTT multiplex HTRF assay in Q48 HTT human embryonic stem cell line: mHTT
Format: cell-based
experimentalConditions: Q48 HTT hESC, 48 hours
// reported mHTT pIC50 for each item listed
# answer = number (no unit)

| smilesCode | mHTT pIC50 |
| --- | --- |
| Cc1cc2cc(O)c(-c3ccc(N(C)C4CC(C)(C)NC(C)(C)C4)nn3)cc2c(C)n1 | 7.3875 |
| CN(c1ccc(-c2ccc(C3=CCNCC3)cc2O)nn1)C1CC(C)(C)NC(C)(C)C1 | 6.661 |
| COc1cc(-c2cnn(C)c2)ccc1-c1nnc(N2CC3(CCNCC3)C2)s1 | 6.4375 |
| CN(c1nnc(-c2cc(F)c(-c3cn[nH]c3)cc2Cl)s1)C1CC(C)(C)NC(C)(C)C1 | 7.1945 |
| COc1cc(-c2cn[nH]c2)cc(F)c1-c1nnc(N(C)C2CC(C)(C)NC(C)(C)C2)s1 | 6.2465 |
| CN(c1ccc(-c2cc3ccc(OCCC(C)(C)O)cc3cc2O)nn1)C1CC(C)(C)NC(C)(C)C1 | 6.529 |

*Q* Name the reported mHTT pIC50 value associated with the compound CN(c1ccc(-c2ccc(-c3ccn(C)c(=O)c3)cc2O)nn1)C1CC(C)(C)NC(C)(C)C1
*A* 7.591

*Q* Next record, please: COc1ccc(-c2ccc(-c3ccc(N(C)C4CC(C)(C)NC(C)(C)C4)nn3)c(O)c2)cn1
*A* 6.547
